Test system: Lambsquarter (Chenopodium album)
protocol.description: Pre-Emergent Test, herbicidal effectiveness
Assay type: in vivo
test.context: pre-emergence, 504 h, 33 micrograms per cm^2, 3 weeks, 0-to-100 scale, read-out: Herbicidal Effectiveness, % Control Pre, L
Method: An acetone solution of the test compound was prepared by mixing 750 mg of the compound, 220 mg of a nonionic surfactant and 25 ml of acetone. This solution was added to approximately 125 ml of water containing 156 mg of surfactant. Seeds of the test vegetation were planted in a pot of soil and the test solution was sprayed uniformly onto the soil surface at a dose of 33 micrograms/cm^2. The pot was watered and placed in a greenhouse. […]
Reported pest or weed control at 33 µg/cm2 values for the following compounds.

# compound, pest or weed control at 33 µg/cm2 / %
rows = [
    ("CSc1nnc(CN(C(=O)CCl)c2c(C)cccc2C)o1 [Compound 24B]", 10),
    ("CCc1nnc(CNc2c(CC)cccc2CC)[nH]1 [Compound 8A]", 0),
    ("CCc1cccc(C)c1NCc1nnc(C)[nH]1 [Compound 6A]", 0),
    ("CCc1cccc(C)c1NCc1nnc[nH]1 [Compound 17A]", 0),
    ("Cc1nnc(CN(C(=O)CCl)c2c(C)cccc2Cl)[nH]1 [Compound 22B]", 85),
    ("CSc1nnc(CNc2c(C)cccc2C)n1C [Compound 14A]", 0),
    ("Cc1nnc(C(C)N(C(=O)CCl)c2c(C)cccc2C)[nH]1 (stereo not shown) [Compound 11B]", 100),
    ("CCc1nnc(CN(C(=O)CCl)c2c(C)cccc2CC)[nH]1 [Compound 15B]", 100),
    ("CCc1cccc(C)c1NCc1nnc(C(C)C)[nH]1 [Compound 16A]", 0),
    ("Cc1cccc(C)c1N(C(=O)CCl)C(C)c1nnc[nH]1 (stereo not shown) [Compound 12B]", 75),
]

----------
Reported pest or weed control at 5000 µg/mL, 33 µg/cm2 values for the following molecules.
Test system: Lambsquarter (Chenopodium album)
protocol.description: Post-Emergent Test, herbicidal effectiveness
Assay type: in vivo
test.context: post-emergence, 504 h, 33 micrograms per cm^2, 3 weeks, 0-to-100 scale, read-out: Herbicidal Effectiveness, % Control Post, L
endpoint.label: pest or weed control at 5000 µg/mL, 33 µg/cm2 (%)

# molecule, unit.symbol, recorded.number
records = [
    ("CCc1nnc(CN(C(=O)CCl)c2c(C)cccc2CC)[nH]1 [Compound 15B]", "%", 35),
    ("Cc1nnc(CNc2c(C)cccc2Cl)[nH]1 [Compound 22A]", "%", 0),
    ("CCc1cccc(CC)c1N(Cc1nnc[nH]1)C(=O)CCl [Compound 20B]", "%", 25),
    ("Cc1cccc(C)c1N(CCc1nnc[nH]1)C(=O)CCl [Compound 13]", "%", 0),
    ("CCc1cccc(C)c1N(Cc1nnc(C(C)C)[nH]1)C(=O)CCl [Compound 16B]", "%", 35),
    ("Cc1nnc(C(C)Nc2c(C)cccc2C)[nH]1 (stereo not shown) [Compound 11A]", "%", 0),
    ("Cc1cccc(C)c1NCc1nnc[nH]1 [Compound 9A]", "%", 0),
    ("Cc1cccc(C)c1NCc1nnc(S)n1C [Compound 3]", "%", 0),
    ("CCc1nnc(CNc2c(C)cccc2CC)[nH]1 [Compound 15A]", "%", 0),
    ("CSc1nnc(CNc2c(C)cccc2C)n1C [Compound 14A]", "%", 0),
    ("Cc1nnc(CN(C(=O)CCl)c2cccc(C(F)(F)F)c2)[nH]1 [Compound 26B]", "%", 0),
    ("Cc1cccc(C)c1N(Cc1nnc[nH]1)C(=O)CCl [Compound 9B]", "%", 25),
    ("Cc1cccc(C)c1N(Cc1nnc(S)[nH]1)C(=O)CCl [Compound 18B]", "%", 0),
    ("CCc1cccc(C)c1N(Cc1nnc(SC)n1C)C(=O)CCl [Compound 21B]", "%", 0),
    ("Cc1nc(CNc2c(C)cccc2C)n[nH]1 [Compound 2A]", "%", 0),
    ("Cc1nnc(C(C)N(C(=O)CCl)c2c(C)cccc2C)[nH]1 (stereo not shown) [Compound 11B]", "%", 25),
    ("CCc1nnc(CNc2c(CC)cccc2CC)[nH]1 [Compound 8A]", "%", 0),
    ("CCc1cccc(CC)c1NCc1nnc(SC)n1C [Compound 23A]", "%", 0),
    ("CSc1nnc(CN(C(=O)CCl)c2c(C)cccc2C)n1C [Compound 14B]", "%", 0),
    ("CCc1cccc(C)c1NCc1nnc(C)[nH]1 [Compound 6A]", "%", 0),
    ("Cc1nnc(CNc2ccc(Cl)c(Cl)c2)[nH]1 [Compound 27A]", "%", 0),
    ("Cc1cccc(C)c1NC(C)c1nnc[nH]1 (stereo not shown) [Compound 12A]", "%", 0),
]
